Tested on: HT-29
Assay: NCI tumour cell line growth inhibition, 48 h
The source made the active and inactive calls. No stated cut-off is given here; in the data, active = GI50 up to about 1.1 µM and inactive = higher. Where a SMILES comes first, the peptide text is derived from it. [ ]: non-standard residue; d: D form. The star is where a group is joined. Phe(4-NO2) = N[CH](Cc1ccc([N+](=O)[O-])cc1)C(=O)O; Boc = CC(C)(C)OC(=O)*
Hi there, use one of these labels in your reply, thanks! active, inactive

See these solved cases before continuing.
{"compound": "CC1(c2cccc(N)c2)C2C(=O)NC(=O)C1C(=O)NC2=O (configuration not stated)", "className": "inactive"}
{"compound": "CCOC(=O)CCC(NC(=O)C(Cc1ccc([N+](=O)[O-])cc1)NC(=O)OC(C)(C)C)C(=O)NC(CCC(=O)OCC)C(=O)OCC (configuration not stated) (Boc-[Phe(4-NO2)]-Glu(OEt)-Glu(OEt)-OEt; configuration not given here)", "className": "inactive"}
{"compound": "O=C(O/N=c1/ccc(=O)/c(=N\\OC(=O)c2ccccc2)c1=O)c1ccccc1", "className": "inactive"}
{"compound": "C[C@H](OC(=O)/C=C/c1ccc(O)c(O)c1)[C@H](C)OC(=O)/C=C/c1ccc(O)c(O)c1", "className": "inactive"}

Would you mind telling me which call this test gave CCOC(=O)C1=C(C)OC2(O)C=CC(O)=C3C(=O)N(c4ccccc4)C(=O)C312 (configuration not stated) ?
inactive

Would you mind telling me which call this test gave O=C1/C(=C/C=C/c2ccccc2)CCC1CNc1ccccc1 (configuration not stated) ?
inactive

Would you mind telling me which call this test gave `COc1nc(N=P(c2ccccc2)(c2ccccc2)c2ccccc2)cc(=O)n1C` ?
inactive

Would you mind telling me which call this test gave `Cc1ccc(C(=O)N/N=C(\N=N\c2ccccc2Cl)c2ccc(N(C)C)cc2)cc1` ?
inactive
